FYI, the data here is from ChEMBL document CHEMBL2396525.

# Test system: Respiratory syncytial virus
# protocol_summary: Antiviral activity against Respiratory syncytial virus Long
# Assay type: functional, organism-based
Activity calls are given as the source filed them. No cut-off for these calls is given here.
value_kind: Activity

Recorded Activity, per entry:
Qu. Recorded Activity for Cc1ccc(OCCCCCn2ccc(=O)[nH]c2=O)cc1 , please?
Ans. inactive

Qu. Recorded Activity for O=c1ccn(CCCCCOc2ccccc2)c(=O)[nH]1 , please?
Ans. inactive

Qu. Recorded Activity for CC(C)(C)c1ccc(OCCCCCn2ccc(=O)[nH]c2=O)cc1 , please?
Ans. inactive

Qu. Recorded Activity for O=c1ccn(CCCCOc2ccc(Br)cc2)c(=O)[nH]1 , please?
Ans. inactive

Qu. Recorded Activity for Cc1cn(CCCCCOc2ccc(Br)cc2)c(=O)[nH]c1=O , please?
Ans. inactive

# ---- query molecule ----
Qu. Recorded Activity for O=c1ccn(CCCCCOc2ccc([N+](=O)[O-])cc2)c(=O)[nH]1 , please?
Ans. inactive
